In this section, each of the molecules is paired with its reported pIC50.
System Under Test: KRas G12R (Homo sapiens, UniProt P01116, G12R);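 also: TR-FRET displacement assay of compound binding to KRas, read after one hour at room temperature, potency from a four-parameter fit of percent-of-control values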
Sequence (P01116 1-169 isoform P01116-2 G12R): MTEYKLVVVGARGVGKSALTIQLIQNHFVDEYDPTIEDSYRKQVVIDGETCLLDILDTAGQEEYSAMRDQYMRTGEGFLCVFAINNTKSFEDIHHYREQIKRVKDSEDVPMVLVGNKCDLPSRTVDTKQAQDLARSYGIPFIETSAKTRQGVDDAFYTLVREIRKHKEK
Experimental Details: biochemical
pIC50: −log10 of the molar value.

Molecule	Assay Result
CCc1c(F)ccc2cc(O)cc(-c3ncc4c(N5CCCn6nc(C(=O)N7CCN(C)CC7)cc6C5)nc(OC[C@@]56CCCN5C[C@H](F)C6)nc4c3F)c12	≥ 8.70
CCc1c(F)ccc2cc(O)cc(-c3ncc4c(N5CCC[C@]6(C5)NC(=O)NC6=O)nc(OC[C@@]56CCCN5C[C@H](F)C6)nc4c3F)c12	≥ 8.70

Let's switch to this molecule now.
Data request: Suppose we examine the molecule CCc1c(F)ccc2cc(O)cc(-c3ncc4c(N5CCCOC(CO)C5)nc(OC[C@@]56CCCN5C[C@H](F)C6)nc4c3F)c12 (stereo partly drawn) ; what pIC50 value has been reported?
Data returned: ≥ 8.70
